measurementDescription: soluble on expression in E. coli; label from the status in PepcDB or PDB records
assayReadout: soluble on expression in E. coli

# count of solved cases: 5
{"inputSequence": "MRGSHHHHHHGSDLGKKLLEAARAGQDDEVRILIANGADVNAVDNTGLTPLHLAAVSGHLEIVEVLLKHGADVDAADVYGFTPLHLAAMTGHLEIVEVLLKYGADVNAFDMTGSTPLHLAADEGHLEIVEVLLKYGADVNAQDKFGKTAFDISIDNGNEDLAKSCRN", "soluble on expression in E. coli": "soluble"}
{"inputSequence": "MGSDKIHHHHHHMRISLSTGTLFTFPLGKVMAIARDAGFDGVELIVNQDFQKVNCRTLIRELAEILPIHSMHAPFMPLDGWGSSIDSLKRCVELSADCGVQLVNFHPPSWMGFELGFWRWLYRVMDFQKEVGQGGVIVTLENMPWVGKRVRMNPHILSSTTKFIDFIQERNLFMTFDTTHMGSGKANFINDFYLCYNSGRIRNIHFSDYGHGREHLLPGHGILPLTRFLNHLRSTGYNDTLTLELSPEEFPRDERIIVESLREILSYLRKETEHPIP", "soluble on expression in E. coli": "not soluble"}
{"inputSequence": "MVKLKVEDLEMDKIAPLAPEVSLKMAWNIMRDKNLKSIPVADGNNHLLGMLSTSNITATYMDIWDSNILAKSATSLDNILDTLSAEAQNINEERKVFPGKVVVAAMQAESLKEFISEGDIAIAGDRAEIQAELIELKVSLLIVTGGHTPSKEIIELAKKNNITVITTPHDSFTASRLIVQSLPVDYVMTKDNLVAVSTDDLVEDVKVTMSETRYSNYPVIDENNKVVGSIARFHLISTHKKKLEHHHHHHHH", "soluble on expression in E. coli": "soluble"}
{"inputSequence": "MSTHLQGSLFDQTDELGLGPLDGLRRTVLGAGAWIDLLPGWLSGADALFERLAADVPWRAERRKMYDQTVDVPRLLAYYRAGDTLPHPVLAEARDALSAHYVAELGEPFTTAGLCYYRDGRDSVAWHGDRIGRGAREDTMVAILSVGAPRDLALRPRGGGDVLRRPLGHGDLIVMGGSCQRTWEHAIPKSTRAAGPRISIQFRPSGVNLEHHHHHH", "soluble on expression in E. coli": "soluble"}
{"inputSequence": "SLLPNILLTGTPGVGKTTLGKELASKSGLKYINVGDLAREEQLYDGYDEEYDCPILDEDRVVDELDNQMREGGVIVDYHGCDFFPERWFHIVFVLRTDTNVLYERLETRGYNEKKLTDNIQCEIFQVLYEEATASYKEEIVHQLPSNKPEELENNVDQILKWIEQWIKDHNS", "soluble on expression in E. coli": "soluble"}

Task: # query: soluble on expression in E. coli of entry MARFSIEGKSLKLDAITTEDEKSVFAVLLEDDSVKEIVLSGNTIGTEAARWLSENIASKKDLEIAEFSDIFTGRVKDEIPEALRLLLQALLKCPKLHTVRLSDNAFGPTAQEPLIDFLSKHTPLEHLYLHNNGLGPQAGAKIARALQELAVNKKAKNAPPLRSIICGRNRLENGSMKEWAKTFQSHRLLHTVKMVQNGIRPEGIEHLLLEGLAYCQELKVLDLQDNTFTHLGSSALAIALKSWPNLRELGLNDCLLSARGAAAVVDAFSKLENIGLQTLRLQYNEIELDAVRTLKTVIDEKMPDLLFLELNGNRFSEEDDVVDEIREVFSTRGRGELDELDDMEELTDEEEEDEEEEAESQSPEPETSEEEKEDKELADELSKAHI
Result: soluble

Task: What do we get for MMKIVPPKPFFFEAGERAVLLLHGFTGNSADVRMLGRFLESKGYTCHAPIYKGHGVPPEELVHTGPDDWWQDVMNGYEFLKNKGYEKIAVAGLSLGGVFSLKLGYTVPIEGIVTMCAPMYIKSEETMYEGVLEYAREYKKREGKSEEQIEQEMEKFKQTPMKTLKALQELIADVRDHLDLIYAPTFVVQARHDEMINPDSANIIYNEIESPVKQIKWYEQSGHVITLDQEKDQLHEDIYAFLESLDW ?
Result: soluble

Task: What do we get for GSHMVPEPDLPHDLRHLNTEPMEIFRNSVKIEEIMPNGDPLLAGQNTVDEVYVSRPS ?
Result: soluble

Task: What do we get for MGHHHHHHSHMQENQQITKKEQYNLNKLQKRLRRNVGEAIADFNMIEEGDRIMVCLSGGKDSYTMLEILRNLQQSAPINFSLVAVNLDQKQPGFPEHVLPEYLEKLGVEYKIVEENTYGIVKEKIPEGKTTCSLCSRLRRGILYRTATELGATKIALGHHRDDILQTLFLNMFYGGKMKGMPPKLMSDDGKHIVIRPLAYCREKDIQRFADAKAFPIIPCNLCGSQPNLQRQVIADMLRDWDKRYPGRIETMFSAMQNVVPSHLCDTNLFDFKGITHGSEVVNGGDLAFDREEIPLQPACWQPEEDENQLDELRLNVVEVK ?
Result: soluble

Task: What do we get for MEAVGADESYDGQQLYMMLVGHSRMADADRTAILGGTFTPIHNGHRALLHKAFQTASHDGSGDGHVIVGLTSPELATETRSDPTHVKQLGAYDDRRSALASELDQLGEPYTATYEIVRLDDTQGPAATRADVDALVASPEAKAQRRAYELNQQRRESGLHPLEIHTPPFVVAEDGTRISSTRIRNGEIDVHGRLLDASE ?
Result: not soluble

Task: What do we get for MAHHHHHHMMQSKVLPTPQDVVLQGLLSLDSTVKTKTHALVSRQLDRLESYLRIKCGWSVPLSSSSTSAEAGCGSNVVRVSEYVRAFTPDGVPIVDRNGGSFNCFVCCGFGDHAMDFAPGAAKVLGKLVEHQAQHLREEDIEKTKTWGLLTSKLSPSRRAAVEEELQLLFNGVDSDAVKRKGSRTPSEASALALLRHEDNPYSTNRFANMVRKEVKMDSSPPILSRLCALEDVFLTHLEPLRRRFHAKATELALRENTPDWLRTFVFCFMYEEDDDPAAQARKEQHVRSLQRLASQYETPVTDAKTTGDGAEELPLTPAEQSKRKQAELERRAREVFAKRV ?
Result: not soluble

Task: What do we get for MNHYVYILECKDGSWYTGYTTDVDRRIKKHASGKGAKYTRGRGPFRLVATWAFPSKEEAMRWEYEVKHLSRRKKEQLVSLKGGPYENTTKLSTTMAGDPLEHHHHHH ?
Result: soluble
